EC50 values, listed per item
- Tested on: U2OS_Bim cells
- method summary: Apoptosis inhibition assay (Bim-induced apoptosis, cell viability by ATP level)
- Assay type: cell-based
- condition info: U2OS_Bim cells; means of duplicates; numbering of Tables 4a/4b; read-out: EC50

Solved entries (count: 3):
* C[S+]([O-])c1nc(-c2ccn(Cc3cccc(C#N)c3)c2)cc(C(F)(F)F)n1 (stereo not shown) [Compound 98] | < 100 µM
* COc1ccc(Cn2cc(-c3cc(C(F)(F)F)nc(S(=O)(=O)CCC(=O)N4CCCC4)n3)ccc2=O)cc1OC [Compound 150] | 0.001 to 1 µM
* C#CCCS(=O)(=O)c1nc(-c2ccc(=O)n(Cc3ccc(OC)c(OC)c3)c2)cc(C(F)(F)F)n1 [Compound 141] | 0.001 to 1 µM

API: the following record is the query input.
Task item: Report EC50 for CS(=O)(=O)c1nc(-c2cccc3ccccc23)cc(C(F)(F)F)n1 [Compound 76] tested on U2OS_Bim cells.
Reply: 1 to 20 µM

====

EC50 values, listed per item
- System: U2OS_Bim cells
- method summary: Apoptosis inhibition assay (Bim-induced apoptosis, cell viability by ATP level)
- Format: cell-based
- condition info: U2OS_Bim cells; means of duplicates; numbering of Tables 4a/4b; read-out: EC50
- Experimental: A chemical library containing 200000 compounds was screened according to the following procedure: U2OS_Bim cells (a cell line in which the BH3-only protein Bim can be inducibly expressed by the addition of Doxycycline to the growth medium)^[2] were plated in 384-well plates with 30 μl medium at a density of 500 cells per well. […] After 24 hrs, cell viability was determined by measuring the ATP levels using a Cell Titer-Glo kit (Promega, G7570) according to the manufacturer's instructions. […]

Solved entries (count: 10):
* COc1ccc(Cn2cc(-c3cc(-c4cccs4)nc(S(=O)(=O)CCC(OCc4ccccc4)c4ccccc4)n3)ccc2=O)cc1OC (stereo not drawn) | 1 to 1000 nM
* CS(=O)(=O)c1nc(-c2cccc(C(N)=O)c2)cc(C(F)(F)F)n1 | 1000 to 10000 nM
* COc1ccc(Cn2cc(-c3cc(C(F)F)nc(S(=O)(=O)CCC(OCc4ccc(F)cc4F)c4ccccc4)n3)ccc2=O)cc1F (stereo not drawn) | 1 to 1000 nM
* C#Cc1ccc(-c2cc(C(F)(F)F)nc(S(C)(=O)=O)n2)cc1 | < 100000 nM
* COc1cc(Cn2cc(-c3cc(C)nc(S(=O)(=O)CCC(OCc4ccccc4F)c4ccccc4)n3)cc(F)c2=O)ccn1 (stereo not drawn) | 1 to 1000 nM
* COc1ccc(Cn2cc(-c3cc(C(F)F)nc([S+](C)[O-])n3)ccc2=O)cc1F (stereo not drawn) | 1 to 1000 nM
* Cc1cc(-c2cc(F)c(=O)n(Cc3ccc4scnc4c3)c2)nc(S(=O)(=O)CCC(OCc2ccccc2F)c2ccccc2)n1 (stereo not drawn) | 1 to 1000 nM
* CS(=O)(=O)c1nc(-c2ccc[nH]2)cc(C(F)(F)F)n1 | 1000 to 10000 nM
* COCCOCCS(=O)(=O)c1nc(-c2ccc(=O)n(Cc3ccc(OC)c(OC)c3)c2)cc(C(F)(F)F)n1 | 1 to 1000 nM
* CS(=O)(=O)c1nc(-c2cccc(Cn3ccccc3=O)c2)cc(C(F)(F)F)n1 | 1000 to 10000 nM

Task item: Please report the recorded EC50 for COc1ccc(Cn2cc(-c3cc(-c4ccccc4F)nc([S+]([O-])CCC(OCc4ccccc4)c4ccccc4)n3)ccc2=O)cc1OC (stereo not drawn) .
Reply: < 100000 nM

Task item: Follow-up entry: CS(=O)(=O)c1nc(-c2cc[nH]c2)cc(C(F)(F)F)n1
Reply: < 100000 nM

====

- System: U2OS_Bim cells
- method summary: Irreversibility binding assay (cellular wash/no wash assay)
- Assay type: cell-based
- condition info: no wash, 3 hrs compound incubation before DOX; read-out: EC50 (no wash)
Where a SMILES comes first, the peptide text is derived from it. The star is where a group is joined. Cbz = O=C(OCc1ccccc1)*; CH2F = FC*
test readout: pEC50
To interpret pEC50, take it as minus log10 of a concentration measured in moles per litre.

• Cc1ccc(O)c(NC(=O)CCCS(=O)(=O)c2nc(-c3cccs3)cc(C(F)(F)F)n2)c1 = 5.40

API: the following record is the query input.
Task item: Please report the recorded pEC50 for COC(=O)C[C@H](NC(=O)[C@H](C)NC(=O)[C@@H](NC(=O)OCc1ccccc1)C(C)C)C(=O)CF [zVAD] (Cbz-Val-Ala-Asp(OMe)-CH2F) .
Reply: 4.16

====

EC50 values, listed per item
- Tested on: U2OS_Bim cells
- method summary: Apoptosis inhibition assay (Bim-induced apoptosis, cell viability by ATP level)
- Assay type: cell-based
- condition info: U2OS_Bim cells; means of duplicates; numbering of Tables 4a/4b; read-out: EC50

Task item: Please report the recorded EC50 for CS(=O)(=O)c1nc(-c2ccc(=O)n(Cc3ccc(N=[N+]=[N-])cc3)c2)cc(C(F)(F)F)n1 [Compound 123] .
Reply: < 100 µM

Task item: Follow-up entry: CS(=O)(=O)c1nc(-c2ccc(=O)n(Cc3cccc(C#N)c3)c2)cc(C(F)(F)F)n1 [Compound 118]
Reply: 1 to 20 µM

Task item: Follow-up entry: CCCOc1cccc(Cn2cc(-c3cc(C(F)(F)F)nc([S+](C)[O-])n3)ccc2=O)c1 (stereo not shown) [Compound 114]
Reply: 1 to 10 µM

Task item: Follow-up entry: C#CCn1cc(-c2cc(C(F)(F)F)nc([S+](C)[O-])n2)ccc1=O (stereo not shown) [Compound 101]
Reply: 1 to 10 µM

Task item: Follow-up entry: COc1ccccc1-c1cc(C(F)(F)F)nc(S(C)(=O)=O)n1 [Compound 51]
Reply: 1 to 10 µM

Task item: Follow-up entry: C#Cc1cccc(Cn2cc(-c3cc(C(F)(F)F)nc(S(C)(=O)=O)n3)ccc2=O)c1 [Compound 120]
Reply: 0.001 to 1 µM

Task item: Follow-up entry: CN(C)c1cc(-c2cccs2)nc([S+](C)[O-])n1 (stereo not shown) [Compound 42]
Reply: < 100 µM

Task item: Follow-up entry: CCCOc1cccc(Cn2cc(-c3cc(C(F)(F)F)nc(S(C)(=O)=O)n3)ccc2=O)c1 [Compound 113]
Reply: 0.001 to 1 µM

====

- System: U2OS_Bim cells
- method summary: Apoptosis inhibition assay (Bim-induced apoptosis, cell viability by ATP level)
- Assay type: cell-based
- condition info: U2OS_Bim cells; means of duplicates; numbering of Tables 4a/4b; read-out: EC50
pEC50: −log10 of the molar value.
test readout: pEC50

* COc1ccc(Cn2cc(-c3nc([S+]([O-])CCC(OCc4ccccc4F)c4ccccc4)nc4sccc34)cc(F)c2=O)cc1F (stereo not shown) [Compound 301] | 5.00 to 6.00
* COc1ccc(Cn2cc(-c3cc(C(F)(F)F)nc(S(C)(=O)=O)n3)ccc2=O)cc1 [Compound 110] | 6.00 to 9.00
* CS(=O)(=O)c1nc(-c2ccccc2F)cc(C(F)(F)F)n1 [Compound 43] | 4.70 to 6.00

API: the following record is the query input.
Task item: Please report the recorded pEC50 for C#CCOc1cc(Cn2cc(-c3cc(C)nc(S(=O)(=O)CCC(OCc4ccccc4F)c4ccccc4)n3)cc(F)c2=O)ccc1OC (stereo not shown) [Compound 332] .
Reply: 6.00 to 9.00

====

- Tested on: U2OS_Bim cells
- method summary: Apoptosis inhibition assay (Bim-induced apoptosis, cell viability by ATP level)
- Format: cell-based
- condition info: U2OS_Bim cells; means of duplicates; numbering of Tables 4a/4b; read-out: EC50
pEC50: −log10 of the molar value.
test readout: pEC50

Solved entries (count: 2):
- COc1ccc(Cn2cc(-c3cc(-c4cccs4)nc([S+]([O-])CCC(OCc4ccccc4)c4ccccc4)n3)ccc2=O)cc1OC (stereo not drawn) [Compound 299]: > 4.00
- C#Cc1cccc(Cn2cc(-c3cc(C(F)(F)F)nc([S+](C)[O-])n3)ccc2=O)c1 (stereo not drawn) [Compound 121]: 6.00 to 9.00

API: the following record is the query input.
Task item: Please report the recorded pEC50 for COc1ccc(Cn2cc(-c3cc(C(F)F)nc([S+]([O-])CCC(OCc4ccccc4F)c4ccccc4)n3)ccc2=O)cc1F (stereo not drawn) [Compound 283] .
Reply: 6.00 to 9.00

====

EC50 values, listed per item
- Test system: U2OS_Bim cells
- method summary: Apoptosis inhibition assay (Bim-induced apoptosis, cell viability by ATP level)
- Type: cell-based
- condition info: U2OS_Bim cells; means of duplicates; numbering of Tables 4a/4b; read-out: EC50

Solved entries (count: 10):
- COc1ccc(Cn2cc(-c3cc(-n4cccn4)nc(S(C)(=O)=O)n3)ccc2=O)cc1OC: 1000 to 10000 nM
- Cc1cc(-c2cc(F)c(=O)n(Cc3ccc4nsnc4c3)c2)nc(S(=O)(=O)CCC(OCc2ccccc2F)c2ccccc2)n1 (stereo not drawn): 1 to 1000 nM
- CNC(=O)CCC[S+]([O-])c1nc(-c2ccc(=O)n(Cc3ccc(OC)c(OC)c3)c2)cc(C(F)F)n1 (stereo not drawn): < 100000 nM
- Cc1cc(-c2cc(F)c(=O)n(Cc3ccc(Cl)c(Cl)c3)c2)nc(S(=O)(=O)CCC(OCc2ccc(F)cc2F)c2ccccc2)n1 (stereo not drawn): 1000 to 10000 nM
- CS(=O)(=O)c1nc(-c2cccs2)cc(-n2ccccc2=O)n1: < 100000 nM
- CS(=O)(=O)c1nc(-c2ccc(=O)n(Cc3cccc(Br)c3)c2)cc(C(F)(F)F)n1: 1 to 1000 nM
- COc1cccc(Cn2cc(-c3cc(C(F)(F)F)nc(S(C)(=O)=O)n3)ccc2=O)c1: 1 to 1000 nM
- CS(=O)(=O)c1nc(-c2ccc(=O)n(Cc3ccc(OC(F)(F)F)cc3)c2)cc(C(F)(F)F)n1: 1000 to 20000 nM
- COc1ccc(Cn2cc(-c3cc(C(F)F)nc([S+](C)[O-])n3)ccc2=O)cc1C(F)(F)F (stereo not drawn): 1 to 1000 nM
- C[S+]([O-])c1nc(-c2cc[nH]c2)cc(C(F)(F)F)n1 (stereo not drawn): < 100000 nM

Task item: Report EC50 for COc1ccc(Cn2cc(-c3cc(C(F)(F)F)nc([S+]([O-])CCC(OCc4ccccc4)c4ccccc4)n3)ccc2=O)cc1OC (stereo not drawn) tested on U2OS_Bim cells.
Reply: 1 to 1000 nM

Task item: Follow-up entry: COc1ccc(Cn2cc(-c3cc(C)nc(S(=O)(=O)CC(F)(F)F)n3)ccc2=O)cc1OC
Reply: 1000 to 10000 nM

Task item: Follow-up entry: COc1ccc(Cn2cc(-c3cc(C(F)(F)F)nc(S(=O)(=O)CCCC(=O)N4CCCC4)n3)ccc2=O)cc1OC
Reply: 1 to 1000 nM

Task item: Follow-up entry: CNS(=O)(=O)CCCS(=O)(=O)c1nc(-c2ccc(=O)n(Cc3ccc(OC)c(OC)c3)c2)cc(C(F)F)n1
Reply: 1 to 1000 nM

Task item: Follow-up entry: CS(=O)(=O)c1nc(-c2ccccc2C#N)cc(C(F)(F)F)n1
Reply: 1000 to 20000 nM
